Test system: NO production in RAW 264.7 cells
Test: Inhibition of nitric oxide production (Nitrate/Nitrite assay, Griess reagent)
Format: cell-based
Conditions: Mus musculus, RAW264.7, LPS (10 μg/ml)/IFNγ (20 ng/ml), 18-24 h, read-out: EC50 value for inhibiting nitric oxide production
Method: RAW 264.7 cells were seeded (70,000 cells/well) and cultured in a 96-well culture plate using the DMEM medium described above. 24 hours later, the medium was replaced with a fresh DMEM medium supplemented with LPS (10 μg/ml)/IFNγ (20 ng/ml). […] The cells, incubated with or without test compounds, were then cultured for 18-24 h and the nitrate and nitric oxide levels in the culturing medium were measured using a Nitrate/Nitrite assay kit (Cayman Chemical). […]
pEC50: −log10 of the molar value.
READOUT LABEL: pEC50

Guide cases for pEC50, answers given:
• COc1cc2c3c(c4cc(OC)c(OC)cc4c2cc1OC)C(O)CN(C(C)C)C3 (stereo not drawn) [Compound 14] = > 6.00
• COc1cc2c3c(c4cc(OC)c(OC)cc4c2cc1OC)CN(C(C)C)CC3 [Compound 25] = > 6.00

Challenge: Request the reported pEC50 associated with CCN1CCc2c(c3cc(OC)c(OC)cc3c3c(OC)c(OC)c(OC)cc23)C1 [Compound 1]
Response given: > 6.00

Challenge: Request the reported pEC50 associated with CCN1Cc2c(c3cc(OC)c(OC)cc3c3cc(OC)c(OC)cc23)C(O)C1 (stereo not drawn) [Compound 9]
Response given: > 6.00

Challenge: Request the reported pEC50 associated with CCCN1Cc2c(c3cc(OC)c(OC)cc3c3cc(OC)c(OC)cc23)C(O)C1 (stereo not drawn) [Compound 10]
Response given: > 6.00

Challenge: Request the reported pEC50 associated with CCN1Cc2c(c3ccc(OC)cc3c3cc(OC)c(OC)cc23)C(O)C1 (stereo not drawn) [Compound 33]
Response given: > 6.00
